Target: GroEL/ES (Escherichia coli)
Construct: made in house; host or cells: GroEL in E. coli DH5a; GroES in E. coli BL21 (DE3)
Test: GroEL/ES-mediated dMDH refolding assay
Assay type: biochemical, E. coli
Conditions: Table 1; 37° C., 1 mM ATP; read-out: Biochemical Assay IC50 GroEL/ES-dMDH Refolding
Recorded metric: pIC50
Remember, pIC50 is on a log scale: it is -log10 of the molar concentration.

Tell me measured pIC50 for O=C(Nc1ccc(Oc2ccc(Cl)cc2)c(Cl)c1)c1cc(I)cc(I)c1O [Rafoxanide, reference compound] please.
5.42

----------
Target: native MDH (Sus scrofa, UniProt P00346)
Construct: soluble pig heart MDH from Roche, product #10127248001; purchased Roche 10127248001; host or cells: pig heart
Sequence (P00346 25-338): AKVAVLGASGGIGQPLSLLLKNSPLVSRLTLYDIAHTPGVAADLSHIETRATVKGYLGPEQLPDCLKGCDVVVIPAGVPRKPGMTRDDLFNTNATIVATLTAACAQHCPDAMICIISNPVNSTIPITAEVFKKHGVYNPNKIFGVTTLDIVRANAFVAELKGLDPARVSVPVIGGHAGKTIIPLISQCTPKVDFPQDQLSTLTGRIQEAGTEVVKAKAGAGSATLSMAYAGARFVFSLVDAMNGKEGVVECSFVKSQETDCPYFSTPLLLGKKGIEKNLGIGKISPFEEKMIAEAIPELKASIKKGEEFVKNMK
Assay: Native MDH enzymatic activity counter-screen
Assay type: biochemical, pig
Details: Table 2; compounds added after refolding and EDTA quench; read-out: Biochemical Assay IC50 Native MDH Activity
Reported IC50 values are given for each entry in this list.

Recorded IC50, per entry:
Entry Cc1cc(C(C#N)c2ccc(Cl)cc2)c(Cl)cc1NC(=O)c1ccccc1F (centres unmarked) needs its IC50 filled in; supply it.
> 63 µM

Look up and report measured IC50 for this entry: Cc1cc(C(C#N)c2ccc(Cl)cc2)c(Cl)cc1NC(=O)c1cc(Cl)cc(Cl)c1O (centres unmarked)
5.5 µM

Supply measured IC50 of Cc1cc(C(C#N)c2ccc(Cl)cc2)c(Cl)cc1NC(=O)c1cc(Br)cc(Br)c1O (centres unmarked) in your reply.
2.3 µM

Tell me its IC50 given Cc1cc(C(C#N)c2ccc(Cl)cc2)c(Cl)cc1NC(=O)c1cccc([N+](=O)[O-])c1 (centres unmarked) as the entry.
> 63 µM

Continuing:
Look up IC50 of Cc1cc(C(C#N)c2ccc(Cl)cc2)c(Cl)cc1NC(=O)c1ccc([N+](=O)[O-])cc1 (centres unmarked) and report it.
> 63 µM

Supply reported IC50 belonging to this molecule: COc1c(Cl)cccc1C(=O)Nc1cc(Cl)c(C(C#N)c2ccc(Cl)cc2)cc1C (centres unmarked)
> 63 µM

Query IC50 for Cc1cc(C(C#N)c2ccc(Cl)cc2)c(Cl)cc1NC(=O)c1ccc(Br)cc1 (centres unmarked)
> 63 µM

Answer with reported IC50 of Cc1cc(C(C#N)c2ccc(Cl)cc2)c(Cl)cc1NC(=O)c1ccccc1 (centres unmarked)
> 63 µM

----------
Target: GroEL/ES (Escherichia coli)
Construct: made in house; host or cells: GroEL in E. coli DH5a; GroES in E. coli BL21 (DE3)
Assay: GroEL/ES-mediated dMDH refolding assay
Format: biochemical, E. coli
Conditions: Table 3; 37° C., 1 mM ATP; read-out: Biochemical Assay IC50 GroEL/ES-dMDH Refolding
pIC50: −log10 of the molar value.
Recorded metric: pIC50

Give the reported value of pIC50 for this record: `O=C(O)c1ccc(NC(=O)c2cc(Cl)ccc2O)cc1`
< 4.00

----------
Assay: HEK 293 kidney cell viability / cytotoxicity assay (Alamar Blue)
Format: cell-based
Details: human
Recorded metric: CC50 at 48 h (µM)
Answer format: numeric, µM implied, no suffix.

Return CC50 at 48 h for the following molecule: Cc1cc(C(C#N)c2ccc(Cl)cc2)c(Cl)cc1NC(=O)c1cc(I)cc(I)c1O (stereo not shown) [Closantel, reference compound]
79

----------
Entries annotated with measured CC50 at 48 h
Assay: HEK 293 kidney cell viability / cytotoxicity assay (Alamar Blue)
Type: cell-based
Details: human; Table 3; 48 h incubation, Alamar Blue; read-out: HEK 293 Kidney Cell Viability CC50
The reply should contain only the number, in µM.

Consider the compound `O=C(Nc1ccc(Oc2ccc(Cl)cc2)cc1)c1cc(Cl)ccc1O` and give its recorded CC50 at 48 h.
15

Return the recorded CC50 at 48 h value; entry: `O=C(Nc1ccc(Cc2ccccc2)cc1)c1cc(Cl)ccc1O`
19

Specify CC50 at 48 h for `O=C(Nc1ccc(Oc2ccc(Cl)cc2)c(Cl)c1)c1cc(Cl)ccc1O` and stop.
10

// next item, CC50 at 48 h requested
Name the recorded CC50 at 48 h of the compound listed here: `O=C(Nc1ccc(Oc2ccccc2)c(Cl)c1)c1cc(Cl)ccc1O`
4.7

----------
Target: GroEL/ES (Escherichia coli, UniProt P0A6F5)
Construct: made in house; host or cells: GroEL in E. coli DH5a; GroES in E. coli BL21 (DE3)
Sequence (P0A6F5 2-548): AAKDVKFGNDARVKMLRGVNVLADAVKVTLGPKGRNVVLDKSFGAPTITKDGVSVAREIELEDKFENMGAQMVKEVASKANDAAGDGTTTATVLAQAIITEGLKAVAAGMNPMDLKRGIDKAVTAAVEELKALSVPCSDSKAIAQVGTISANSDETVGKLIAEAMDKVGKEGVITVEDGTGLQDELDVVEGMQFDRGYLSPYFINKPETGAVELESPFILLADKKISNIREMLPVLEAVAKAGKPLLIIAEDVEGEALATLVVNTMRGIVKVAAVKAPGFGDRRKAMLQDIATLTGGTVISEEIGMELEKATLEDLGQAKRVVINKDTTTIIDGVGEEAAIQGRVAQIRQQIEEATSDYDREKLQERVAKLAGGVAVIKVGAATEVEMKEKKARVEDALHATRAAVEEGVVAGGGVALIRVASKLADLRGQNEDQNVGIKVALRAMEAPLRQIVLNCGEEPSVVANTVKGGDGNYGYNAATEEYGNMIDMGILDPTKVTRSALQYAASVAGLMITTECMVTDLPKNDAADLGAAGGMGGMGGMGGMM
Experiment: GroEL/ES-mediated dMDH refolding assay
Format: biochemical, E. coli
Recorded metric: pIC50
Remember the convention: pIC50 equals -log10 of concentration in molar.

Some compounds with recorded pIC50:
State its pIC50 for this compound: `COc1ccc(Cl)cc1C(=O)Nc1ccc(Sc2nc3ccccc3s2)c(Cl)c1`
4.21

Given the compound Cc1cc(C(C#N)c2ccc(Cl)cc2)c(Cl)cc1NC(=O)c1cc(Cl)ccc1O (stereo not shown) , write its reported pIC50.
4.62

State its pIC50 for this compound: `O=C(Nc1ccc(Oc2ccccc2)cc1)c1cc(Cl)ccc1O`
4.17

Specify measured pIC50 for COc1ccc(Cl)cc1C(=O)Nc1cc(Cl)c(C(C#N)c2ccc(Cl)cc2)cc1C (stereo not shown) .
4.23

Then this compound:
Using the record for Cc1cc(C(C#N)c2ccc(Cl)cc2)c(Cl)cc1NC(=O)c1cccc(Cl)c1O (stereo not shown) , state its measured pIC50.
4.85

----------
Target: GroEL/ES (Escherichia coli)
Construct: made in house; host or cells: GroEL in E. coli DH5a; GroES in E. coli BL21 (DE3)
Assay: GroEL/ES-mediated dMDH refolding assay
Format: biochemical, E. coli
Recorded metric: IC50
Param answer (str): number followed by unit.

Worked cases, IC50 given:
Let me know recorded IC50 for Cc1cc(C(C#N)c2ccc(Cl)cc2)c(Cl)cc1NC(=O)c1ccccc1N (centres unmarked) , thanks.
44 µM

Quickly give me recorded IC50 for Cc1cc(C(C#N)c2ccc(Cl)cc2)c(Cl)cc1NC(=O)c1ccc(N)cc1 (centres unmarked)
47 µM

Specify measured IC50 for Cc1cc(C(C#N)c2ccc(Cl)cc2)c(Cl)cc1NC(=O)c1ccc(F)cc1 (centres unmarked) .
77 µM

Give me measured IC50, please, for this molecule: Cc1cc(C(C#N)c2ccc(Cl)cc2)c(Cl)cc1NC(=O)c1cccc(F)c1 (centres unmarked)
78 µM

More entries:
For the molecule Cc1cc(C(C#N)c2ccc(Cl)cc2)c(Cl)cc1NC(=O)c1cccc(N)c1 (centres unmarked) , give its reported IC50.
51 µM

Consider the molecule Cc1cc(C(C#N)c2ccc(Cl)cc2)c(Cl)cc1NC(=O)c1ccccc1Br (centres unmarked) . State its measured IC50.
53 µM

Dear colleague, please send me the reported IC50 for COc1cccc(C(=O)Nc2cc(Cl)c(C(C#N)c3ccc(Cl)cc3)cc2C)c1 (centres unmarked) when you can.
67 µM

Determine from records and report IC50 for `COc1ccc(Cl)cc1C(=O)Nc1ccc(Sc2nc3ccccc3s2)cc1`
59 µM

----------
Biological target: HSP60/10 (Homo sapiens)
Construct: octa-Histidine (His8) tag, TEV-cleavable (N, cleaved yes); made in house; host or cells: HSP60 in Rosetta 2 (DE3) E. coli; HSP10 in Rosetta 2 (DE3) pLysS
Sequence (P10809 27-573): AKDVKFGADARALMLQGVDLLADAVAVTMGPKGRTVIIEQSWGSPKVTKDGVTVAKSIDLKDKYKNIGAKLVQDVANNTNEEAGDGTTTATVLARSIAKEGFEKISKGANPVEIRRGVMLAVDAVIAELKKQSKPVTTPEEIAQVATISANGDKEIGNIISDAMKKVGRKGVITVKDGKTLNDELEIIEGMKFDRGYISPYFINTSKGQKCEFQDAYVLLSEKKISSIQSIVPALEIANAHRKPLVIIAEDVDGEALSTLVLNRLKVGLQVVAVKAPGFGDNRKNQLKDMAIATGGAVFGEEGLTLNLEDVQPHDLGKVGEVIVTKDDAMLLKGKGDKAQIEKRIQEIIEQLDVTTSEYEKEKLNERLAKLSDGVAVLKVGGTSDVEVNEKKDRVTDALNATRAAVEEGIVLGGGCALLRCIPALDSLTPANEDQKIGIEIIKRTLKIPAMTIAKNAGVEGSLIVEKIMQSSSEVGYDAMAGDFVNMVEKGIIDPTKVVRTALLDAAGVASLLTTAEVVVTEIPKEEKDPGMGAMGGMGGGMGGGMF
Experiment: HSP60/10-mediated dMDH refolding assay
Type: biochemical
Conditions: Table 2; 37° C., 1 mM ATP; read-out: Biochemical Assay IC50 HSP60/10-dMDH Refolding
Description: Evaluation of compounds ability to inhibit GroEL/ES and HSP60/10-mediated dMDH refolding assays. […] Assay Protocol: First, 30 μL aliquots of the GroEL/ES-dMDH or HSP60/10-dMDH binary complex stocks were dispensed into clear, 384-well polystyrene plates. […] The incubation time was determined from refolding time-course control experiments until they reached ˜90% completion of refolding cycle — generally ˜20-40 min for GroEL/ES, and ˜40-60 min for HSP60/10). […]
pIC50: −log10 of the molar value.
Quick reference for pIC50 among some compounds

Please indicate pIC50 recorded for Cc1cc(C(C#N)c2ccc(Cl)cc2)c(Cl)cc1NC(=O)c1ccccc1 (stereo not shown) [Compound 82]
< 4.00

More entries:
Respond only with pIC50 recorded for COc1c(Br)cc(Br)cc1C(=O)Nc1cc(Cl)c(C(C#N)c2ccc(Cl)cc2)cc1C (stereo not shown) [Compound 45]
< 4.00

Recall and state the measured pIC50 for Cc1cc(C(C#N)c2ccc(Cl)cc2)c(Cl)cc1NC(=O)c1ccc(N)cc1 (stereo not shown) [Compound 72] .
4.14

// Input: Cc1cc(C(C#N)c2ccc(Cl)cc2)c(Cl)cc1NC(=O)c1cccc(F)c1 (stereo not shown) [Compound 80] . Output its pIC50 only.
< 4.00

----------
Target: GroEL/ES (Escherichia coli)
Construct: made in house; host or cells: GroEL in E. coli DH5a; GroES in E. coli BL21 (DE3)
Assay: GroEL/ES-mediated dMDH refolding assay
Type: biochemical, E. coli
Recorded metric: pIC50
Scale for pIC50: -log10 of concentration given in mol/L; no unit attached.

Please report the measured pIC50 for `COc1ccc(Cl)cc1C(=O)Nc1ccc(CC#N)cc1`
4.27

Indicate its recorded pIC50; the compound in question is Cc1cc(C(C#N)c2ccc(Cl)cc2)c(Cl)cc1NC(=O)c1cccc([N+](=O)[O-])c1 (stereo not drawn)
4.37

Identify measured pIC50 corresponding to Cc1cc(C(C#N)c2ccc(Cl)cc2)c(Cl)cc1NC(=O)c1cccc(Br)c1 (stereo not drawn)
4.30

Continuing:
Give the reported pIC50 for this compound. Cc1cc(C(C#N)c2ccc(Cl)cc2)c(Cl)cc1NC(=O)c1ccccc1[N+](=O)[O-] (stereo not drawn)
4.37

For the compound Cc1cc(C(C#N)c2ccc(Cl)cc2)c(Cl)cc1NC(=O)c1ccc(Cl)cc1O (stereo not drawn) , give its measured pIC50 value.
4.24
